These entries and their values trace back to ChEMBL document CHEMBL1153924.

- Tested on: Streptococcus pneumoniae
- test: Antibacterial activity against erythromycin-resistant Streptococcus pneumoniae AB11 expressing erm and mef genes by broth microdilution method
- Type: functional
parameter-measured: MIC (µg/mL)
Give the value in µg/mL but do not write µg/mL after it.

Please review the entries below; each comes with its answer.
smiles-code: CC[C@H]1OC(=O)[C@H](C)[C@@H](O[C@H]2C[C@@](C)(OC)[C@@H](OC(=O)NCc3ccc(F)cc3)[C@H](C)O2)[C@H](C)[C@@H](O[C@@H]2O[C@H](C)C[C@H](N(C)C)[C@H]2O)[C@](C)(O)C[C@@H](C)CN(C)[C@H](C)[C@H]2OC(=O)O[C@@]21C
parameter-measured: MIC
units: µg/mL
val: 4
--
smiles-code: CC[C@H]1OC(=O)[C@H](C)[C@@H](O[C@H]2C[C@@](C)(OC)[C@@H](O)[C@H](C)O2)[C@H](C)[C@@H](O[C@@H]2O[C@H](C)C[C@H](N(C)C)[C@H]2O)[C@](C)(O)C[C@@H](C)CN(C)[C@H](C)[C@@H](O)[C@]1(C)O
parameter-measured: MIC
units: µg/mL
val: 256

Prompt line: Tell me reported MIC for CC[C@H]1OC(=O)[C@H](C)[C@@H](O[C@H]2C[C@@](C)(OC)[C@@H](OC(=O)NCCc3ccc(O)cc3)[C@H](C)O2)[C@H](C)[C@@H](O[C@@H]2O[C@H](C)C[C@H](N(C)C)[C@H]2O)[C@](C)(O)C[C@@H](C)CN(C)[C@H](C)[C@@H](OC(=O)NCc2ccccc2)[C@]1(C)O , tested with Streptococcus pneumoniae.
Response line: 128

Prompt line: Form entry - test system: Streptococcus pneumoniae; read-out: MIC; compound: CCCCNC(=O)O[C@@H]1[C@@H](C)N(C)C[C@H](C)C[C@@](C)(O)[C@H](O[C@@H]2O[C@H](C)C[C@H](N(C)C)[C@H]2O)[C@@H](C)[C@H](O[C@H]2C[C@@](C)(OC)[C@@H](OC(=O)NCCc3ccc(O)cc3)[C@H](C)O2)[C@@H](C)C(=O)O[C@H](CC)[C@@]1(C)O
Response line: 128
